# test-target: T1, human PILRA G78 extracellular domain (recombinant hPILRA ECD) (human, UniProt Q9UKJ1 20-197)
# T1 construct: also called hPILRA G78
# T1 sequence (Q9UKJ1 20-197 R78G limits assumed): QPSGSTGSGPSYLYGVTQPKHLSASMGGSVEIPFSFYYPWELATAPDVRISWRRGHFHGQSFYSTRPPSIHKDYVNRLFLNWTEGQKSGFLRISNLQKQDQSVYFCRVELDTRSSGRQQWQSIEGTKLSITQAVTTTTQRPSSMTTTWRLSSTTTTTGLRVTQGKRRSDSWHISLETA
# procedure-text: SPR, Biacore 8K; antibody captured via anti-human Fab, recombinant ECD injected; 1:1 fit;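 note: CM5 sensor chip, ECD analyte in threefold dilution series at 30 µL/min, 3 min association and 10 min dissociation, kon and koff fitted simultaneously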
Kindly supply the reported Kd values for the records listed here.
Entry rule: numbers only, all in nM.

What value of Kd has been reported for the following binder? Anti-PILRA antibody clone 7 (antibody, V domains shown) VH: EVQLQQSGPELQRPGASVKLSCKASGYTFTEYYMYWVKQRPKQGLELMGRIDPEDGGTDYVEKFKNKATLTADTSSNTAYMQLSSLTSEDTATYFCASTIRGTVFVYWGQGTLVTVSS VL: DIQMTQSPASLSASLGETVTIECRPSEDIYNGLAWYQQKPGESPQLLIYNANSLHTGVPSRFSGSGSGTQYSLKINSLQSEDVASYFCQQYYDYPLTFGSGTKLEIK 1.2

Field request: Kd | item: Anti-PILRA antibody clone 8 (antibody, V domains shown) VH: QVQLVQSGAEVKKPGASVKVSCKASGYTFTGHYMHWVRQAPGQGLEWMGWINPNSGDTDYAQKFQGRVTMTRDTSISTAYMDLNRLRSDDTAVFYCAREGLDGDPFDYWGQGTLVTVSS VL: EIMLTQTPLSSPVTLGQPASISCRSSQSLVHSDGNTYLSWLQQRPGQPPRLLIYNISNRFSGVPDRFSGRGAGTDFTLKISRVEAEDVGVYYCIQTTQFSTFGQGTKLEIK 11

So what's the measured Kd for this one? Anti-PILRA antibody clone 10 (antibody, V domains shown, also called Ab; Clone 10) VH: EVQLVQSGAEIRKPGESLKISCKGSGYSFTTYWIAWVRQMPGKGLEWMGIIYPGDSDTRYSPSFQGQVTISADKSITTAYLQWSSLKASDTGIYYCARTYYYFSGSHWDAFDIWGQGTMVTVSS VL: DIQMTQSPSSVSAYVGDRVTITCRASQDIRDCLAWYQQKPGKAPKFLIYAASSFQSGVPSGFSGSGSGTDFTLTVTSLQPEDSATYYCQQTHSFPYTFGQGTKLEIK 61

Give its Kd value. Item: Anti-PILRA antibody clone 2 (antibody, human IgG1, kappa, L234A L235A, V domains shown, also called Ab; Clone 2; Ab.2) VH: EVQLVESGGGLVQPGRSLRLSCAVSGFTFDDYAMHWVRQAPGKGLEWVSGFSWNSGSIGYPDSVKGRFTISRDNAKNSLYLQMNSLRAEDTAFYYCAKDKSISAAGRFDYWGQGTLVTVSS VL: DIQMTQSPSSLSASVGDRVTITCQASRRINNYLNWYQQKPGKAPKLLIYDASNLETGVPSRFTGSGSGTDFTLTISSLQPEDIATYYCQQYDNLPLTFGGGTKVEIKR 0.69
